# Test system: BxPC3
# ASSAY_METHOD_TEXT: Cell assay, tumour cell proliferation (CellTiter-Glo, 96 h)
# Assay type: cell-based
# REPORTED_CONDITIONS: Homo sapiens, BXPC-3; 96-hour incubation
PARAMETER_MEASURED: IC50 (nM)
Form entry: value (nM) — number only.

Problem: Endpoint output: IC50 of `CO[C@H]1CC[C@]2(CC1)NC(=O)C(c1cc(-c3ccc(Cl)c(F)c3)ccc1C)=C2O` . Value?
Result: 165

====

# Tested on: LNCaP
# ASSAY_METHOD_TEXT: Cell assay, tumour cell proliferation (CellTiter-Glo, 96 h)
# Type: cell-based
# REPORTED_CONDITIONS: Homo sapiens, 96-hour incubation
PARAMETER_MEASURED: IC50
Kindly format the answer as number then unit.

Problem: Quick check: IC50 of `CO[C@H]1CC[C@]2(CC1)NC(=O)C(c1cc(-c3ccc(Cl)c(F)c3)ccc1C)=C2O` ?
Result: 334 nM

====

# ASSAY_METHOD_TEXT: Maximum tolerated dose (MTD) determination, oral
# Assay type: in vivo, female nude mice (NMRI nu/nu)
# REPORTED_CONDITIONS: female, NMRI nu/nu (nude), mouse, in vivo, po, 21-day treatment with 1 administration per day
PARAMETER_MEASURED: MTD at 21 days

Problem: Reported MTD at 21 days for `CO[C@H]1CC[C@]2(CC1)NC(=O)C(c1cc(-c3ccc(Cl)c(F)c3)ccc1C)=C2O` : what is it?
Result: < 40 mg/kg

====

# ASSAY_SYSTEM: UniProt O00763
# ASSAY_METHOD_TEXT: Human ACC2 enzyme assay B2 (ADP-Glo)
# Type: biochemical
# REPORTED_CONDITIONS: read-out: ACC 2 (=B2) IC50
# Sequence (O00763 27-2458 limits assumed): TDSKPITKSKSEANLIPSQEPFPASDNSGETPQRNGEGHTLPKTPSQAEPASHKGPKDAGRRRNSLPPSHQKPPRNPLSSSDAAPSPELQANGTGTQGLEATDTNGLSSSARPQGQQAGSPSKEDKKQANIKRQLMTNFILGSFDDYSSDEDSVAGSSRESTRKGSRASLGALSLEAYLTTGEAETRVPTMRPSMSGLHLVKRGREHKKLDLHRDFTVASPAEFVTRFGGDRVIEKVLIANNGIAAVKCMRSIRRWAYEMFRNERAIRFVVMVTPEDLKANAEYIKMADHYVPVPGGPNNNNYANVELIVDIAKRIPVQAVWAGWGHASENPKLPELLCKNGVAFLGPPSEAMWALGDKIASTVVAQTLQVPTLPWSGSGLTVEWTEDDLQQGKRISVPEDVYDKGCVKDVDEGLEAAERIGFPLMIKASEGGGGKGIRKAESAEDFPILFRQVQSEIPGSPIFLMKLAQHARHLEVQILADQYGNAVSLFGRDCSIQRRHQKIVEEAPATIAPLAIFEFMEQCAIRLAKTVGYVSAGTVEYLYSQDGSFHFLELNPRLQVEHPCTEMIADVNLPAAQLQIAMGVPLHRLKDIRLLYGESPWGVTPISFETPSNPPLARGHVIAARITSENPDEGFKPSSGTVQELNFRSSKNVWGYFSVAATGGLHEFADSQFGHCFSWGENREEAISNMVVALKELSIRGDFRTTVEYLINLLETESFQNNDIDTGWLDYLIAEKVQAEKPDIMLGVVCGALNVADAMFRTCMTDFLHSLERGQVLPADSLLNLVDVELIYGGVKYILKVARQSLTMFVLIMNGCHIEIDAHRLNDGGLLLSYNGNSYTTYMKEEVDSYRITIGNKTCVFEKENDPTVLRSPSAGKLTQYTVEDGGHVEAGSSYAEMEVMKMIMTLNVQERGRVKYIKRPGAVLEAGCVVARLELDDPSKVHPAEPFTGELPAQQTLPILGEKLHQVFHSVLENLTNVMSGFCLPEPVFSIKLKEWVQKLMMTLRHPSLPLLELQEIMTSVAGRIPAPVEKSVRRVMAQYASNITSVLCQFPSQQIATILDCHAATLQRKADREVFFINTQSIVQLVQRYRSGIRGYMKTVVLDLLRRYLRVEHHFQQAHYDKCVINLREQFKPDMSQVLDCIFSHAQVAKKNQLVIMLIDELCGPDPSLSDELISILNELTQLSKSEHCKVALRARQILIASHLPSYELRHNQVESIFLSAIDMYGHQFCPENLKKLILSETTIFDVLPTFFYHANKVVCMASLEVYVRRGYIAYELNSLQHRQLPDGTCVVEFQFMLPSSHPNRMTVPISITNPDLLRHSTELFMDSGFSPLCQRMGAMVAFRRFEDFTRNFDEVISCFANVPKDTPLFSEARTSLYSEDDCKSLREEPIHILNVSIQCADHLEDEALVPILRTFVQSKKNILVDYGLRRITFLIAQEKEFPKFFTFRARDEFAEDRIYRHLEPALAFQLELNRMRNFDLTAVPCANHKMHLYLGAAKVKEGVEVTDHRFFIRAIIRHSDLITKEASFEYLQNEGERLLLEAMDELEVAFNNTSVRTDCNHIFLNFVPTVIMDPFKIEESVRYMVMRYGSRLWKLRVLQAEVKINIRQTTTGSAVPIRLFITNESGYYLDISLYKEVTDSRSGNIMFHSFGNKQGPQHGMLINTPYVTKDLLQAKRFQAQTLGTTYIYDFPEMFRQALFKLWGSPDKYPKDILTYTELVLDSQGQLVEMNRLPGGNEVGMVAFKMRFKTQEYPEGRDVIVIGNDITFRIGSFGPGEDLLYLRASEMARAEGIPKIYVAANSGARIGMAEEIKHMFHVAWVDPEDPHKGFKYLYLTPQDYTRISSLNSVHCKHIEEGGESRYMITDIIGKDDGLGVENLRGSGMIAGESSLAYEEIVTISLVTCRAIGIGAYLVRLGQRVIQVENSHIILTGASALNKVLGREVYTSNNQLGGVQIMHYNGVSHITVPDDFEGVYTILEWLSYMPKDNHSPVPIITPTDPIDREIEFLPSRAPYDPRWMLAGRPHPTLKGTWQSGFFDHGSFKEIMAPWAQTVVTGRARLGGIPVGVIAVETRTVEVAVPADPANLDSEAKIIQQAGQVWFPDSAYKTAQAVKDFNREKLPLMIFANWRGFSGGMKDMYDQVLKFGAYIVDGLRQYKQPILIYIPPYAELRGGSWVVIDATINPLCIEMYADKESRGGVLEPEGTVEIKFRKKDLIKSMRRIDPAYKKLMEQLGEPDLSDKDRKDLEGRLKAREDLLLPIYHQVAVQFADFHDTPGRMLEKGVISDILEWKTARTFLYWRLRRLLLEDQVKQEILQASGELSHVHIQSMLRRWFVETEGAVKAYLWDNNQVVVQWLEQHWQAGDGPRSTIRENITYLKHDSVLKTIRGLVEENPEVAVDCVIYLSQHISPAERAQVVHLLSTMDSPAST
PARAMETER_MEASURED: pIC50
// returns pIC50 (minus log10 of molar concentration), number only

Problem: Looking for the measured pIC50 of COC1CCC2(C=C(c3cc(-c4ccc(Cl)c(Cl)c4)ccc3C)C(=O)N2)CC1 (stereo not shown) , can you help?
Result: 5.58

====

# ASSAY_METHOD_TEXT: Maximum tolerated dose (MTD) determination, oral
# Type: in vivo, female nude mice (NMRI nu/nu)
# REPORTED_CONDITIONS: female, NMRI nu/nu, mouse, in vivo, po, 14-day treatment with 2 administrations per day
PARAMETER_MEASURED: MTD at 14 days

Problem: Can you share its MTD at 14 days? I mean this compound: CO[C@H]1CC[C@]2(CC1)NC(=O)C(c1cc(-c3ccc(Cl)cc3)ccc1C)=C2O [Comparative Example C.1]
Result: < 10 mg/kg

====

# System: BT-20
# ASSAY_METHOD_TEXT: Cell assay, tumour cell proliferation (CellTiter-Glo, 96 h)
# Format: cell-based
# REPORTED_CONDITIONS: Homo sapiens, 96-hour incubation
PARAMETER_MEASURED: pIC50
Answer as the number alone; pIC50 is minus log10 of concentration in mol/L.

Problem: Which pIC50 is listed for `CO[C@H]1CC[C@]2(CC1)NC(=O)C(c1cc(-c3ccc(Cl)c(F)c3)ccc1C)=C2O` ?
Result: 6.73

====

# ASSAY_SYSTEM: ACC2 (Homo sapiens (Human), UniProt O00763)
# ASSAY_METHOD_TEXT: Human ACC2 enzyme assay A2 (HTRF ADP immunoassay)
# Format: biochemical
# REPORTED_CONDITIONS: read-out: ACC 2 (=A2) IC50
# Sequence (O00763 39-2458 limits assumed): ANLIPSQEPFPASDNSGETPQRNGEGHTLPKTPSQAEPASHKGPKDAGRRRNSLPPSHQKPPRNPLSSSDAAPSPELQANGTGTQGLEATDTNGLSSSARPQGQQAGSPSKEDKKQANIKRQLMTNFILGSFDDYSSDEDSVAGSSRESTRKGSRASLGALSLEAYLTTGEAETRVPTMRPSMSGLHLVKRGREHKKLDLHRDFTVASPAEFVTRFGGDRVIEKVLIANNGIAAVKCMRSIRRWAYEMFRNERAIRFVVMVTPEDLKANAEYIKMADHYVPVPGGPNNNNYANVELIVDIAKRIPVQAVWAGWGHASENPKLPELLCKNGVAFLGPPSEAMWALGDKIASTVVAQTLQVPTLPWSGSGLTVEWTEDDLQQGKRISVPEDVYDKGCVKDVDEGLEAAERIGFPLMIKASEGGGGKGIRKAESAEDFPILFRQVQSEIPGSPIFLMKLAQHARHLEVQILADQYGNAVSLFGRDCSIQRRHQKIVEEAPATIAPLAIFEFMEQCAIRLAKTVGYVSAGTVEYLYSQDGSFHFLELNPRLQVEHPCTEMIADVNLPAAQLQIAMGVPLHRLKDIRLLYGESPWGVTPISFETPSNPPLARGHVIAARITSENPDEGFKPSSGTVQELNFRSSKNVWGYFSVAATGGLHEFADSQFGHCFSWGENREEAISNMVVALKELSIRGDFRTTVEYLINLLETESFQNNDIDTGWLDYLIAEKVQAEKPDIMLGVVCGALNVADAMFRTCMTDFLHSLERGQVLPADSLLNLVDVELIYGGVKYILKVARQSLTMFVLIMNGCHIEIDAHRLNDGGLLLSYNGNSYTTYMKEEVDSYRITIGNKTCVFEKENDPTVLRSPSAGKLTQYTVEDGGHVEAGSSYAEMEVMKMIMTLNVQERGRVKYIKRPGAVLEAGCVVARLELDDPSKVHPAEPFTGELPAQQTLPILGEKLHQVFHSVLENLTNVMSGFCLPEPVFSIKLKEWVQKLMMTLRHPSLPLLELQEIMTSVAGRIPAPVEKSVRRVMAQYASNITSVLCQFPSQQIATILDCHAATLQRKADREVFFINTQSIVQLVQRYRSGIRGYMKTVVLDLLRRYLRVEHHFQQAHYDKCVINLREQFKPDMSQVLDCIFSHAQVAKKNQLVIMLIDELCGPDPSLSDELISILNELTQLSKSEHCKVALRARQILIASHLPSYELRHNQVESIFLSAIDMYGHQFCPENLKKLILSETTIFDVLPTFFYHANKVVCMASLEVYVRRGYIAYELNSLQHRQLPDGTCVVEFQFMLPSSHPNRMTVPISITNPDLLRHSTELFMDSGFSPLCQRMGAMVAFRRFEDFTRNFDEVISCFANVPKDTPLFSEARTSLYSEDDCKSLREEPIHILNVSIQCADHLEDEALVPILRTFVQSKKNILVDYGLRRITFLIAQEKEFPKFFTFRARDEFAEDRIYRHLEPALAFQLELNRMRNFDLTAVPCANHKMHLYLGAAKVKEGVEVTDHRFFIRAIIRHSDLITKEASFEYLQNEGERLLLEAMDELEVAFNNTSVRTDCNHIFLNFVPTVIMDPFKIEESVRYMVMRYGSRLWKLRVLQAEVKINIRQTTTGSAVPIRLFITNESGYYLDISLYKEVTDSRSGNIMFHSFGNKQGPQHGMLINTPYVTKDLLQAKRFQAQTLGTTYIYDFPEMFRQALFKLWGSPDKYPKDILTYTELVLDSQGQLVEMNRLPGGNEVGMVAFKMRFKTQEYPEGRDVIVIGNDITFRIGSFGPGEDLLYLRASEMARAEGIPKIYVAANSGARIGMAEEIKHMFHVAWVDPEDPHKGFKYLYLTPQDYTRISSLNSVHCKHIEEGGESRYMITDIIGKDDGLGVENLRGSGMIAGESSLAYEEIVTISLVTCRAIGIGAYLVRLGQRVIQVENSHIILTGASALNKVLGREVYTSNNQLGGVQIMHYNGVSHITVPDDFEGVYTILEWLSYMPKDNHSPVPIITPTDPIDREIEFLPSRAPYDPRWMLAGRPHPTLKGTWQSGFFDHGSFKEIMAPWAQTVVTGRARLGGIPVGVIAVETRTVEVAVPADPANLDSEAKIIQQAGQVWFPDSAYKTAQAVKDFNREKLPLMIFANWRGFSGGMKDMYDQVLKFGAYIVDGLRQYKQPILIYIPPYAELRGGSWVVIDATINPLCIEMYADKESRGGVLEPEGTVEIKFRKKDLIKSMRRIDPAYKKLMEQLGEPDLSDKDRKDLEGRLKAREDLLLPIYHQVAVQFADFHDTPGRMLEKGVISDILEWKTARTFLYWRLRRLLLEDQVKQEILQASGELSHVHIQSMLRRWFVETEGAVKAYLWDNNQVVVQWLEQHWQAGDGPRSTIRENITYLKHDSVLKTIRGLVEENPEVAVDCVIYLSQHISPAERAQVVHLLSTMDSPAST
PARAMETER_MEASURED: IC50 (nM)
Numeric answer only, unit nM assumed.

Problem: Which IC50 is reported for this compound? COC1CCC2(C=C(c3cc(-c4ccc(Cl)c(Cl)c4)ccc3C)C(=O)N2)CC1 (stereo not shown)
Result: 1410

====

# ASSAY_METHOD_TEXT: Maximum tolerated dose (MTD) determination, oral
# Format: in vivo, female nude mice (NMRI nu/nu)
# REPORTED_CONDITIONS: female, NMRI nu/nu, mouse, in vivo, po, 21-day treatment with 1 administration per day
PARAMETER_MEASURED: MTD at 21 days

Problem: Endpoint output: MTD at 21 days of `CO[C@H]1CC[C@]2(CC1)NC(=O)C(c1cc(-c3ccc(Cl)cc3)ccc1C)=C2O` . Value?
Result: < 15 mg/kg
